# Procedure Text: Cytotoxicity against mouse N9 cells assessed as reduction in cell viability by measuring LDH release at 0.5 to 5 uM incubated for 24 hrs by LDH assay
# Assay type: toxicity, cell-based
# Experimental Context: n9, 24 h, dose 0.5-5 µM
Measured Endpoint: Activity

[
  {
    "Molecule": "N#Cc1ccc(C[C@H](NC(=O)Nc2ccc(F)cc2)C(=O)NCC2(c3ccc(F)c(Cl)c3)CC2)cc1",
    "Measured Endpoint": "Activity",
    "Result": "Non-Toxic"
  },
  {
    "Molecule": "N#Cc1ccc(C[C@H](NC(=O)Nc2ccc(F)cc2)C(=O)N2CCc3ccc(F)cc32)cc1",
    "Measured Endpoint": "Activity",
    "Result": "Non-Toxic"
  },
  {
    "Molecule": "N#Cc1ccc(C[C@H](NC(=O)Nc2ccc(F)cc2)C(=O)N2CCCc3ccccc32)cc1",
    "Measured Endpoint": "Activity",
    "Result": "Toxic"
  },
  {
    "Molecule": "N#Cc1ccc(C[C@H](NC(=O)Nc2ccc(F)cc2)C(=O)N2CCc3ccccc3C2)cc1",
    "Measured Endpoint": "Activity",
    "Result": "Non-Toxic"
  },
  {
    "Molecule": "N#Cc1ccc(C[C@H](NC(=O)Nc2ccc(F)cc2)C(=O)N2Cc3ccccc3C2)cc1",
    "Measured Endpoint": "Activity",
    "Result": "Non-Toxic"
  },
  {
    "Molecule": "N#Cc1ccc(C[C@H](NC(=O)Nc2ccc(F)cc2)C(=O)N2CCc3ccccc32)cc1",
    "Measured Endpoint": "Activity",
    "Result": "Non-Toxic"
  },
  {
    "Molecule": "N#Cc1ccc(C[C@H](NC(=O)Nc2ccc(F)cc2)C(=O)N2CCc3cc(F)ccc32)cc1",
    "Measured Endpoint": "Activity",
    "Result": "Non-Toxic"
  },
  {
    "Molecule": "N#Cc1ccc(C[C@H](NC(=O)Nc2ccc(F)cc2)C(=O)NC2CCCCNC2=O)cc1 (some centres undefined)",
    "Measured Endpoint": "Activity",
    "Result": "Non-Toxic"
  },
  {
    "Molecule": "N#Cc1ccc(C[C@@H](NC(=O)Nc2ccc(F)cc2)C(=O)N2CCc3ccc(F)cc32)cc1",
    "Measured Endpoint": "Activity",
    "Result": "Toxic"
  }
]

Provenance of the data: ChEMBL document CHEMBL5154784
